Test system: NCI-H727
Assay: relative viability (nuclei count vs DMSO), 5 days (fraction); higher = more cells survive
Details: first compound 0.1 µM
Measured relative viability accompanies every entry in the list below.
Write no unit; give the number alone.

Problem: So what's the measured relative viability for this one? CCN(CC)CCCCNc1ncc2cc(-c3cc(OC)cc(OC)c3)c(NC(=O)NC(C)(C)C)nc2n1 + O=C(CCCCCCC(=O)Nc1ccccc1)NO [Vorinostat] (partner 1 µM)
Solution: 1.47

Problem: Record: O=c1cc(N2CCOCC2)oc2c(-c3cccc4c3sc3ccccc34)cccc12 + O=C(c1cc(Cc2n[nH]c(=O)c3ccccc23)ccc1F)N1CCN(C(=O)C2CC2)CC1 [Olaparib] (partner 8 µM)
Solution: 0.679

Others:
Problem: So what's the measured relative viability for this one? O=c1cc(N2CCOCC2)oc2c(-c3cccc4c3sc3ccccc34)cccc12 + CC(=O)Nc1cccc(-n2c(=O)n(C3CC3)c(=O)c3c(Nc4ccc(I)cc4F)n(C)c(=O)c(C)c32)c1 [Trametinib] (partner 0.02 µM)
Solution: 0.389

Problem: Record: O=c1cc(N2CCOCC2)oc2c(-c3cccc4c3sc3ccccc34)cccc12 + NC(=O)Nc1cc(-c2cccc(F)c2)sc1C(=O)N[C@H]1CCCNC1 [AZD7762] (partner 0.2 µM)
Solution: 0.423

Problem: Record: O=c1cc(N2CCOCC2)oc2c(-c3cccc4c3sc3ccccc34)cccc12 + CC1(C)CCC(c2ccc(Cl)cc2)=C(CN2CCN(c3ccc(C(=O)NS(=O)(=O)c4ccc(N[C@H](CCN5CCOCC5)CSc5ccccc5)c(S(=O)(=O)C(F)(F)F)c4)cc3)CC2)C1 [Navitoclax] (partner 0.5 µM)
Solution: 0.39

Problem: Record: CCN(CC)CCCCNc1ncc2cc(-c3cc(OC)cc(OC)c3)c(NC(=O)NC(C)(C)C)nc2n1 + CC(C)C[C@H](NC(=O)[C@H](Cc1ccccc1)NC(=O)c1cnccn1)B(O)O [Bortezomib] (partner 0.002 µM)
Solution: 0.809

Problem: Record: CCN(CC)CCCCNc1ncc2cc(-c3cc(OC)cc(OC)c3)c(NC(=O)NC(C)(C)C)nc2n1 + CS(=O)(=O)CCNCc1ccc(-c2ccc3ncnc(Nc4ccc(OCc5cccc(F)c5)c(Cl)c4)c3c2)o1 [Lapatinib] (partner 2 µM)
Solution: 0.944

Problem: Record: O=c1cc(N2CCOCC2)oc2c(-c3cccc4c3sc3ccccc34)cccc12 + CS(=O)(=O)CCNCc1ccc(-c2ccc3ncnc(Nc4ccc(OCc5cccc(F)c5)c(Cl)c4)c3c2)o1 [Lapatinib] (partner 2 µM)
Solution: 0.925
